Answer each item with its documented viability, T/C.
- Test system: 126254-015-R-J1-PDC complex spheroid growth, % test/control
- test_name: Anticancer human tumor 126254-015-R-J1-PDC patient-derived soft tissue sarcoma cell line growth inhibition [Asc]
- conditions: second compound 0.1 µM; first compound 0.1 µM; stronger effect = lower value
Numbers only, in %.

molecule	quantity_measured	val
O=C(c1ccc(F)c(F)c1Nc1ccc(I)cc1F)N1CC(O)([C@@H]2CCCCN2)C1 + Cc1c(S(C)(=O)=O)c(-c2cc(F)cc(N3CCN(c4ccc(NS(=O)(=O)c5ccc(NC(CCN6CCC(C(=O)OCCCP(=O)(O)O)CC6)CSc6ccccc6)c(S(=O)(=O)C(F)(F)F)c5)cc4)CC3)c2)c(-c2ccc(Cl)cc2)n1C(C)C	viability, T/C	87.7

# context switch: different molecule, same viability, T/C
Reported viability, T/C of O=C(c1cc(Cc2n[nH]c(=O)c3ccccc23)ccc1F)N1CCN(C(=O)C2CC2)CC1 + CNC(C)C(=O)NC1CN(S(=O)(=O)c2cccc(S(=O)(=O)N3CCC4CCC(C(=O)NC(c5ccccc5)c5ccccc5)N4C(=O)C(NC(=O)C(C)NC)C3)c2)CCC2CCC(C(=O)NC(c3ccccc3)c3ccccc3)N2C1=O : 77.8

---

- Tested on: 126254-015-R-J1-PDC complex spheroid growth, % test/control
- test_name: Anticancer human tumor 126254-015-R-J1-PDC cell line growth inhibition [Asc];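 further: spheroids exposed to compound for seven days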
- conditions: curve of compound
pIC50: −log10 of the molar value.
Answer each item with its documented pIC50.

Example entries and their recorded answers appear below.
molecule	quantity_measured	val
Cn1ncnc1[C@H]1c2n[nH]c(=O)c3cc(F)cc(c23)N[C@@H]1c1ccc(F)cc1	pIC50	< 7.00
NC1CCC(NC2CC2c2ccccc2)CC1 (stereo not drawn)	pIC50	< 7.00

# context switch: different molecule, same pIC50
The reported pIC50 value, 126254-015-R-J1-PDC complex spheroid growth, % test/control, for C#Cc1c(F)ccc2cc(O)cc(-c3ncc4c(N5CC6CCC(C5)N6)nc(OCC56CCCN5CC(F)C6)nc4c3F)c12 (stereo not drawn) reads < 5.00

---

- Tested on: 126254-015-R-J1-PDC complex spheroid growth, % test/control
- test_name: Anticancer human tumor 126254-015-R-J1-PDC cell line growth inhibition [Asc];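 further: spheroids exposed to compound for seven days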;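 on viability, T/C: 100% = DMSO vehicle control wells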
- conditions: second compound 0.1 µM; first compound 0.00316 µM; stronger effect = lower value
Rule for this label: 1 means viability, T/C is less than 70%; 0 means viability, T/C is at least 70%.

compound	discrete_label
O=C(c1ccc(F)c(F)c1Nc1ccc(I)cc1F)N1CC(O)([C@@H]2CCCCN2)C1 + Cc1c(S(C)(=O)=O)c(-c2cc(F)cc(N3CCN(c4ccc(NS(=O)(=O)c5ccc(NC(CCN6CCC(C(=O)OCCCP(=O)(O)O)CC6)CSc6ccccc6)c(S(=O)(=O)C(F)(F)F)c5)cc4)CC3)c2)c(-c2ccc(Cl)cc2)n1C(C)C	0

Exercise: Problem: For the compound Cn1ncnc1[C@H]1c2n[nH]c(=O)c3cc(F)cc(c23)N[C@@H]1c1ccc(F)cc1 + CNC(C)C(=O)NC1CN(S(=O)(=O)c2cccc(S(=O)(=O)N3CCC4CCC(C(=O)NC(c5ccccc5)c5ccccc5)N4C(=O)C(NC(=O)C(C)NC)C3)c2)CCC2CCC(C(=O)NC(c3ccccc3)c3ccccc3)N2C1=O , is viability, T/C under 70%?
Key: 1

Exercise: Problem: For the compound COc1c(OCCCN2CCOCC2)ccc2c3n(c(=NC(=O)c4cnc(N)nc4)nc12)CCN3 + Cc1c(S(C)(=O)=O)c(-c2cc(F)cc(N3CCN(c4ccc(NS(=O)(=O)c5ccc(NC(CCN6CCC(C(=O)OCCCP(=O)(O)O)CC6)CSc6ccccc6)c(S(=O)(=O)C(F)(F)F)c5)cc4)CC3)c2)c(-c2ccc(Cl)cc2)n1C(C)C , is viability, T/C under 70%?
Key: 0

Exercise: Problem: For the compound COc1c(OCCCN2CCOCC2)ccc2c3n(c(=NC(=O)c4cnc(N)nc4)nc12)CCN3 + CNC(C)C(=O)NC1CN(S(=O)(=O)c2cccc(S(=O)(=O)N3CCC4CCC(C(=O)NC(c5ccccc5)c5ccccc5)N4C(=O)C(NC(=O)C(C)NC)C3)c2)CCC2CCC(C(=O)NC(c3ccccc3)c3ccccc3)N2C1=O , is viability, T/C under 70%?
Key: 1

Exercise: Problem: For the compound NC1CCC(NC2CC2c2ccccc2)CC1 (stereo unspecified) + CNC(C)C(=O)NC1CN(S(=O)(=O)c2cccc(S(=O)(=O)N3CCC4CCC(C(=O)NC(c5ccccc5)c5ccccc5)N4C(=O)C(NC(=O)C(C)NC)C3)c2)CCC2CCC(C(=O)NC(c3ccccc3)c3ccccc3)N2C1=O , is viability, T/C under 70%?
Key: 0

Exercise: Problem: For the compound CCN1CCN(Cc2ccc(Nc3ncc(F)c(-c4cc(F)c5nc(C)n(C(C)C)c5c4)n3)nc2)CC1 + CNC(C)C(=O)NC1CN(S(=O)(=O)c2cccc(S(=O)(=O)N3CCC4CCC(C(=O)NC(c5ccccc5)c5ccccc5)N4C(=O)C(NC(=O)C(C)NC)C3)c2)CCC2CCC(C(=O)NC(c3ccccc3)c3ccccc3)N2C1=O , is viability, T/C under 70%?
Key: 1
